Exercise: state measured pIC50 for each of the compounds provided.
testSystem: protein-protein interaction between Kras and SOS1 (biotin-tagged human Kras loaded with GDP, His-tagged human SOS1) (Homo sapiens (Human), UniProt P01116, G12D)
experimentalProtocol: Protein-protein interaction inhibition between Kras and SOS1 (KrasG12D-SOS PPI) using AlphaScreen
Type: biochemical
recordedConditions: AlphaScreen; biotin-tagged human Kras loaded with GDP, His-tagged human SOS1; read-out: KRAS G12D-SOS PPI IC50
Numbered stars: 1 amine (or outer) side, 2 acyl side, 3 side chain; on linkers, the order of the positions; unused ones are H or OH. Bridge positions count the residues as written; N and C are the ends. Square brackets hold non-standard residues; d marks the D form. Peptide text beside a SMILES is read from it. * marks the point of attachment. hPhe(3-Cl-4-CF3) = N[C@@H](CCc1ccc(C(F)(F)F)c(Cl)c1)C(=O)O; NEtPhe(4-Me) = CCN[C@@H](Cc1ccc(C)cc1)C(=O)O; hPhe(4-Cl) = N[C@@H](CCc1ccc(Cl)cc1)C(=O)O; NMedβ3hAla = C[C@H](CC(=O)[*:2])N(C)[*:1]; NMeGly(cPent) = CN[C@H](C(=O)O)C1CCCC1; NMeCha = CN[C@@H](CC1CCCCC1)C(=O)O; Hyp = O=C(O)[C@@H]1C[C@@H](O)CN1; N(CH2CH2)2CF2 = FC1(F)CCN(*)CC1; NMeD = CN[C@@H](CC(=O)O)C(=O)O; NMeL = CN[C@@H](CC(C)C)C(=O)O; NMeV = CN[C@H](C(=O)O)C(C)C; NMeS = CN[C@@H](CO)C(=O)O; NMeA = CN[C@@H](C)C(=O)O; Piperidide = C1CCN(*)CC1; Ac5c = NC1(C(=O)O)CCCC1; Aze = O=C(O)[C@@H]1CCN1; Ac4c = NC1(C(=O)O)CCC1; Sar = CNCC(=O)O; Propyl = CCC*
Give bare numbers, as −log10 of the molar value.

CC[C@H](C)[C@@H]1NC(=O)[C@H](CC(C)C)N(C)C(=O)C[C@@H](C)N(C)C(=O)[C@H](C(C)C)N(C)C(=O)C2(CCCC2)NC(=O)[C@H](CC(=O)N2CCC(F)(F)CC2)N(C)C(=O)[C@H](CCc2ccc(C(F)(F)F)c(Cl)c2)NC(=O)CN(C)C(=O)[C@H](CC2CCCCC2)N(C)C(=O)CN(C)C(=O)CN(C)C1=O [Compound 350] (cyclo([Ac5c][NMeV][NMedβ3hAla][NMeL]I[Sar][Sar][NMeCha][Sar][hPhe(3-Cl-4-CF3)][NMeD](N(CH2CH2)2CF2))) = 7.19
CC[C@H](C)[C@@H]1NC(=O)[C@H](CC(C)C)N(C)C(=O)C[C@@H](C(=O)N2CCCCC2)N(C)C(=O)[C@H](C(C)C)N(C)C(=O)C2(CCCC2)NC(=O)[C@H](CC(=O)N2CCC(F)(F)CC2)N(C)C(=O)[C@H](CCc2ccc(Cl)cc2)NC(=O)CN(C)C(=O)[C@H](CC2CCCCC2)N(C)C(=O)CN(C)C(=O)CN(C)C1=O [Compound 177] ([NMeL]I[Sar][Sar][NMeCha][Sar][hPhe(4-Cl)][NMeD](N(CH2CH2)2CF2)[Ac5c][NMeV][NMeD]-Piperidide; lactam N-11) = 7.35
CCCOC[C@H]1C(=O)N[C@@H]([C@@H](C)CC)C(=O)N(C)[C@@H](C)C(=O)N2CC[C@H]2C(=O)N(C)[C@@H](CC2CCCCC2)C(=O)N(C)CC(=O)N[C@@H](CCc2ccc(C(F)(F)F)c(Cl)c2)C(=O)N2CCC[C@H]2C(=O)NC2(CCCC2)C(=O)N(C)[C@@H](C(C)C)C(=O)N(C)[C@H](C(=O)N2CCCCC2)CC(=O)N1C [Compound 1763] ([NMeS](Propyl)I[NMeA][Aze][NMeCha][Sar][hPhe(3-Cl-4-CF3)]P[Ac5c][NMeV][NMeD]-Piperidide; lactam N-11) = 8.35
CCO[C@@H]1C[C@H]2C(=O)NC3(CCC3)C(=O)N(C)[C@@H](C3CCCC3)C(=O)N(C)[C@H](C)CC(=O)N(C)[C@@H](CC(C)C)C(=O)N[C@@H]([C@@H](C)CC)C(=O)N(C)[C@@H](C)C(=O)N3CC[C@H]3C(=O)N(CC)[C@@H](Cc3ccc(C)cc3)C(=O)N(C)CC(=O)N[C@@H](CCc3ccc(C(F)(F)F)c(Cl)c3)C(=O)N2C1 [Compound 713] (cyclo([Ac4c][NMeGly(cPent)][NMedβ3hAla][NMeL]I[NMeA][Aze][NEtPhe(4-Me)][Sar][hPhe(3-Cl-4-CF3)][Hyp](Et))) = 8.40

We next turn to a different compound, shown below.
Problem: Specify reported pIC50 for the compound shown: CC[C@H](C)[C@@H]1NC(=O)[C@H](CC(C)C)N(C)C(=O)C[C@@H](C(=O)N2CCCCC2)N(C)C(=O)[C@H](C(C)C)N(C)C(=O)C2(CCCC2)NC(=O)[C@@H]2CCCN2C(=O)[C@H](CCc2ccc(Cl)cc2)NC(=O)CN(C)C(=O)[C@H](CC2CCCCC2)N(C)C(=O)CN(C)C(=O)[C@@H]2CCCN2C1=O [Compound 530] ([NMeL]IP[Sar][NMeCha][Sar][hPhe(4-Cl)]P[Ac5c][NMeV][NMeD]-Piperidide; lactam N-11)
Result: 6.85

----------
testSystem: protein-protein interaction between Kras and SOS1 (biotin-tagged human Kras loaded with GDP, His-tagged human SOS1) (Homo sapiens (Human), UniProt P01116, G12D)
experimentalProtocol: Protein-protein interaction inhibition between Kras and SOS1 (KrasG12D-SOS PPI) using AlphaScreen
Assay type: biochemical
recordedConditions: AlphaScreen; biotin-tagged human Kras loaded with GDP, His-tagged human SOS1; read-out: KRAS G12D-SOS PPI IC50
Numbered stars: 1 amine (or outer) side, 2 acyl side, 3 side chain; on linkers, the order of the positions; unused ones are H or OH. Bridge positions count the residues as written; N and C are the ends. Square brackets hold non-standard residues; d marks the D form. Peptide text beside a SMILES is read from it. * marks the point of attachment. hPhe(3,5-F2-4-CF3) = N[C@@H](CCc1cc(F)c(C(F)(F)F)c(F)c1)C(=O)O; 3Oxa8azabicyclo(3.2.1)octane = C1CC2COCC1N2*; NMePhe(4-Cl) = CN[C@@H](Cc1ccc(Cl)cc1)C(=O)O; NMedβ3hAla = C[C@H](CC(=O)[*:2])N(C)[*:1]; Phe(3-I) = N[C@@H](Cc1cccc(I)c1)C(=O)O; X26 = CC(C)=CC[C@H](N[*:1])C(=O)[*:2]; NMeCha = CN[C@@H](CC1CCCCC1)C(=O)O; Hyp = O=C(O)[C@@H]1C[C@@H](O)CN1; NMeChg = CN[C@H](C(=O)O)C1CCCCC1; NMeD = CN[C@@H](CC(=O)O)C(=O)O; NMeL = CN[C@@H](CC(C)C)C(=O)O; NMeAib = CNC(C)(C)C(=O)O; Ac5c = NC1(C(=O)O)CCCC1; Sar = CNCC(=O)O
assayReadout: pIC50
Answers are plain numbers, as −log10 of the molar value.

CC[C@H](C)[C@@H]1NC(=O)[C@H](CC(C)C)N(C)C(=O)C[C@@H](C)N(C)C(=O)[C@H](CC(C)C)NC(=O)C(C)(C)N(C)C(=O)[C@H](CC=C(C)C)NC(=O)[C@H](Cc2cccc(I)c2)NC(=O)CN(C)C(=O)[C@H](Cc2ccc(Cl)cc2)N(C)C(=O)CN(C)C(=O)CN(C)C1=O [Compound 1418] (cyclo(I[Sar][Sar][NMePhe(4-Cl)][Sar][Phe(3-I)][X26][NMeAib]L[NMedβ3hAla][NMeL])) = 6.96

Could you now consider this next compound?
Problem: Using the record for CCO[C@@H]1C[C@H]2C(=O)NC3(CCCC3)C(=O)N(C)[C@@H](C3CCCCC3)C(=O)N(C)[C@H](C(=O)N3C4CCC3COC4)CC(=O)N(C)[C@@H](CC(C)C)C(=O)N[C@@H]([C@@H](C)CC)C(=O)N(C)CC(=O)N(C)CC(=O)N(C)[C@@H](CC3CCCCC3)C(=O)N(C)CC(=O)N[C@@H](CCc3cc(F)c(C(F)(F)F)c(F)c3)C(=O)N2C1 [Compound 1341] ([NMeL]I[Sar][Sar][NMeCha][Sar][hPhe(3,5-F2-4-CF3)][Hyp](Et)[Ac5c][NMeChg][NMeD]-{3Oxa8azabicyclo(3.2.1)octane}; lactam N-11) , state its measured pIC50.
Result: 9.09

----------
testSystem: protein-protein interaction between Kras and SOS1 (biotin-tagged human Kras loaded with GDP, His-tagged human SOS1) (Homo sapiens (Human), UniProt P01116, G12D)
experimentalProtocol: Protein-protein interaction inhibition between Kras and SOS1 (KrasG12D-SOS PPI) using AlphaScreen;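 further: kras produced in E. coli, Ni-coupled donor beads and streptavidin acceptor beads, excitation 680 nm with emission detected at 520–620 nm via singlet oxygen transfer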
Format: biochemical
recordedConditions: AlphaScreen; biotin-tagged human Kras loaded with GDP, His-tagged human SOS1; read-out: KRAS G12D-SOS PPI IC50
Numbered stars: 1 amine (or outer) side, 2 acyl side, 3 side chain; on linkers, the order of the positions; unused ones are H or OH. Bridge positions count the residues as written; N and C are the ends. Square brackets hold non-standard residues; d marks the D form. Peptide text beside a SMILES is read from it. * marks the point of attachment. hPhe(3,5-F2-4-CF3) = N[C@@H](CCc1cc(F)c(C(F)(F)F)c(F)c1)C(=O)O; NEtPhe(4-CF3) = CCN[C@@H](Cc1ccc(C(F)(F)F)cc1)C(=O)O; hPhe(4-CF3) = N[C@@H](CCc1ccc(C(F)(F)F)cc1)C(=O)O; NMePhe(4-Cl) = CN[C@@H](Cc1ccc(Cl)cc1)C(=O)O; NMePhe(2-Cl) = CN[C@@H](Cc1ccccc1Cl)C(=O)O; hPhe(4-Cl) = N[C@@H](CCc1ccc(Cl)cc1)C(=O)O; NMedβ3hAla = C[C@H](CC(=O)[*:2])N(C)[*:1]; NMeGly(cPent) = CN[C@H](C(=O)O)C1CCCC1; NMeCha = CN[C@@H](CC1CCCCC1)C(=O)O; Hyp = O=C(O)[C@@H]1C[C@@H](O)CN1; NMeF = CN[C@@H](Cc1ccccc1)C(=O)O; NMeD = CN[C@@H](CC(=O)O)C(=O)O; NMeL = CN[C@@H](CC(C)C)C(=O)O; NMeV = CN[C@H](C(=O)O)C(C)C; d(β3hA) = C[C@@H](N)CC(=O)O; NMeA = CN[C@@H](C)C(=O)O; Piperidide = C1CCN(*)CC1; Pyrrolidide = C1CCN(*)C1; Ac5c = NC1(C(=O)O)CCCC1; Aze = O=C(O)[C@@H]1CCN1; Ac4c = NC1(C(=O)O)CCC1; Sar = CNCC(=O)O
assayReadout: IC50 (nM)
Numbers only, in nM.

// known answers, use as guide
CC[C@H](C)[C@@H]1NC(=O)[C@H](C(C)C)N(C)C(=O)C[C@@H](C(=O)N2CCCCC2)NC(=O)[C@H](CC(C)C)N(C)C(=O)C2(CCCC2)NC(=O)[C@H](CC(C)C)N(C)C(=O)[C@H](CCc2ccc(C(F)(F)F)cc2)NC(=O)CN(C)C(=O)[C@H](Cc2ccc(Cl)cc2)N(C)C(=O)CN(C)C(=O)CN(C)C1=O [Compound 610] ([NMeV]I[Sar][Sar][NMePhe(4-Cl)][Sar][hPhe(4-CF3)][NMeL][Ac5c][NMeL]D-Piperidide; lactam N-11) = 150
CC[C@H](C)[C@@H]1NC(=O)[C@H](C)N(C)C(=O)C[C@@H](C(=O)N2CCCC2)N(C)C(=O)[C@H](C(C)C)N(C)C(=O)C2(CCCC2)NC(=O)[C@H](Cc2ccccc2Cl)N(C)C(=O)[C@H](CCc2ccc(Cl)cc2)NC(=O)CN(C)C(=O)[C@H](CC2CCCCC2)N(C)C(=O)CN(C)C(=O)CN(C)C1=O [Compound 607] ([NMeA]I[Sar][Sar][NMeCha][Sar][hPhe(4-Cl)][NMePhe(2-Cl)][Ac5c][NMeV][NMeD]-Pyrrolidide; lactam N-11) = 220
CC[C@H](C)[C@@H]1NC(=O)[C@H](C)N(C)C(=O)C[C@@H](C)NC(=O)[C@H](CC(C)C)N(C)C(=O)[C@H](Cc2ccccc2)N(C)C(=O)[C@H](C)N(C)C(=O)[C@H](CCc2ccc(C(F)(F)F)cc2)NC(=O)CN(C)C(=O)[C@H](Cc2ccc(Cl)cc2)N(C)C(=O)CN(C)C(=O)CN(C)C1=O [Compound 978] (cyclo(I[Sar][Sar][NMePhe(4-Cl)][Sar][hPhe(4-CF3)][NMeA][NMeF][NMeL][d(β3hA)][NMeA])) = 170
CCO[C@@H]1C[C@H]2C(=O)N(C)[C@@H](Cc3ccccc3)C(=O)N(C)[C@@H](CC(C)C)C(=O)N[C@H](C)CC(=O)N(C)[C@@H](C)C(=O)N[C@@H]([C@@H](C)CC)C(=O)N(C)CC(=O)N(C)CC(=O)N(C)[C@@H](Cc3ccc(Cl)cc3)C(=O)N(C)CC(=O)N[C@@H](CCc3ccc(C(F)(F)F)cc3)C(=O)N2C1 [Compound 322] (cyclo([Hyp](Et)[NMeF][NMeL][d(β3hA)][NMeA]I[Sar][Sar][NMePhe(4-Cl)][Sar][hPhe(4-CF3)])) = 31

Problem: Supply IC50 value. Item: CCO[C@@H]1C[C@H]2C(=O)NC3(CCC3)C(=O)N(C)[C@@H](C3CCCC3)C(=O)N(C)[C@H](C)CC(=O)N(C)[C@@H](CC(C)C)C(=O)N[C@@H]([C@@H](C)CC)C(=O)N(C)[C@@H](C)C(=O)N3CC[C@H]3C(=O)N(CC)[C@@H](Cc3ccc(C(F)(F)F)cc3)C(=O)N(C)CC(=O)N[C@@H](CCc3cc(F)c(C(F)(F)F)c(F)c3)C(=O)N2C1 [Compound 132] (cyclo([Ac4c][NMeGly(cPent)][NMedβ3hAla][NMeL]I[NMeA][Aze][NEtPhe(4-CF3)][Sar][hPhe(3,5-F2-4-CF3)][Hyp](Et)))
Result: 0.96
